molecular target: T1, human FcRn/b2M (human, UniProt P61769 21-119, biotinylated); assay: SPR off-rate; pH 7.4 vs pH 6.0;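 also: surface plasmon resonance with diluted periplasmic extracts flowed over ligand surfaces, 120 s association and 600–3600 s dissociation at 25 °C, running buffer containing 150 mM NaCl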
T1 construct: bought recombinant biotinylated protein (ACRO FCM-H82W4 or Immunitrack ITF01); also called hFcRn; hFcRn/hb2M
T1 sequence (chain, as listed by the source limits assumed, chain 1 of 2): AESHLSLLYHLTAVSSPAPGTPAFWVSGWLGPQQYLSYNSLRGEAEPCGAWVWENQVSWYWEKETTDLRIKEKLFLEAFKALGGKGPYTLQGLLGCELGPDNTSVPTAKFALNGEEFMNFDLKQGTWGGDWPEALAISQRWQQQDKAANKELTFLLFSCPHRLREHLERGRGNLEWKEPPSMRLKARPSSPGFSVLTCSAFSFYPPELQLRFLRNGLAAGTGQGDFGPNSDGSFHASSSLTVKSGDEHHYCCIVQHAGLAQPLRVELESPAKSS
T1 sequence (P61769 21-119 limits assumed, chain 2 of 2): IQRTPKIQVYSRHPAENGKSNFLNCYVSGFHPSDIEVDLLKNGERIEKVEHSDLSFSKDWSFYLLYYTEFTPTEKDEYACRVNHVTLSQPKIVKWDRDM
I'd appreciate it if you could supply kd ratio pH 7.4/6.0 values for the items below.
One number for each entry.

Past entries and their recorded results:
{"columns": ["BINDER", "kd ratio pH 7.4/6.0"],
 "data": [
  ["T0263018B11 Y100dF (VHH, name in Kabat numbering, FLAG3-His6 tagged) VHH: EVQLVESGGGVVQPGGSLRLSCAASGFTFSSYAMYWVRQAPGKGLEWVSAISSGGGSTDYADSVKGRFTISRDNSKNTLYLQMNSLRPEDTALYYCAADTLYTSLTWFSYWGQGTLVTVSS", 26],
  ["T0263018B11 T96I (VHH, name in Kabat numbering, FLAG3-His6 tagged) VHH: EVQLVESGGGVVQPGGSLRLSCAASGFTFSSYAMYWVRQAPGKGLEWVSAISSGGGSTDYADSVKGRFTISRDNSKNTLYLQMNSLRPEDTALYYCAADILYTSLTWYSYWGQGTLVTVSS", 52],
  ["T0263018B11 G26Q (VHH, name in Kabat numbering, FLAG3-His6 tagged) VHH: EVQLVESGGGVVQPGGSLRLSCAASQFTFSSYAMYWVRQAPGKGLEWVSAISSGGGSTDYADSVKGRFTISRDNSKNTLYLQMNSLRPEDTALYYCAADTLYTSLTWYSYWGQGTLVTVSS", 53]
]}

Let us examine a further case.
Exercise: Looking for the measured kd ratio pH 7.4/6.0 of T0263018B11 S101V (VHH, name in Kabat numbering, FLAG3-His6 tagged) VHH: EVQLVESGGGVVQPGGSLRLSCAASGFTFSSYAMYWVRQAPGKGLEWVSAISSGGGSTDYADSVKGRFTISRDNSKNTLYLQMNSLRPEDTALYYCAADTLYTSLTWYVYWGQGTLVTVSS , can you help?
Key: 43
